Give measured melting point for each item. Keep answers brief.

Quick check: melting point of Nc1cccc(-n2c(O)c(O)n(C3CC3)c2=O)c1 ?
164 to 166 °C

Quick check: melting point of CC1CNc2ccccc2NC1=O (stereo not given) ?
203 to 205 °C

Quick check: melting point of O=C1Nc2c(ccc(Cl)c2F)C1=O ?
200 to 202 °C

Quick check: melting point of O=C(C1CCCCC1)N1CCNCC1 ?
86 to 88 °C

Quick check: melting point of Cc1nn(-c2ccc(C(F)(F)F)cn2)c(C)c1CC(=O)O ?
142 to 144 °C

Quick check: melting point of Cc1c[nH]c(=O)n1-c1cccc(C(=O)O)c1 ?
289 to 291 °C

Quick check: melting point of CC1CN(S(=O)(=O)c2ccc(N)cc2)CC(C)O1 (stereo not given) ?
199 to 203 °C

Quick check: melting point of CCS(=O)(=O)c1cc(F)ccc1N ?
43 to 45 °C

Quick check: melting point of CC(C)C(Nc1ccc(C(F)(F)F)cc1Cl)C(=O)O (stereo not given) ?
128 to 132 °C

Quick check: melting point of O=S1(=O)CC(S(=O)(=O)Cl)c2ccccc21 (stereo not given) ?
144 to 146 °C

Quick check: melting point of Nn1c(S)nnc1COc1ccccc1 ?
163 to 167 °C

Quick check: melting point of Cc1ccc(CN2CCOCC2)cc1N ?
125 to 127 °C

Quick check: melting point of CC(=O)N(C)c1cccc(N)c1 ?
114 to 116 °C

Quick check: melting point of O=c1[nH]c(CCl)nc2scc(-c3ccc(Cl)cc3)c12 ?
124 to 126 °C

Quick check: melting point of Nc1nnc(-c2cc3c(s2)CCCC3)o1 ?
266 to 268 °C

Quick check: melting point of Nc1nnc(-c2ccc(F)cc2)o1 ?
246 to 248 °C

Quick check: melting point of COc1ccc(C(=O)NCC(=O)O)cc1 ?
165 to 167 °C

Quick check: melting point of O=C(CCl)NNC(=O)C1CCC1 ?
199 to 201 °C

Quick check: melting point of COC(=O)c1sc2nc(CCl)[nH]c(=O)c2c1C ?
276 to 278 °C

Quick check: melting point of CC(=O)N1CCN(CC(N)=NO)CC1 ?
199 to 201 °C

Quick check: melting point of COc1ccc(F)cc1C(=O)CBr ?
74 to 76 °C

Quick check: melting point of CN(C)c1nccc(C=O)n1 ?
50 to 52 °C

Quick check: melting point of O=C(O)CSc1nnc(-c2ccc(F)cc2)o1 ?
140 to 142 °C

Quick check: melting point of Nc1cccc(C(=O)N2CCOCC2)c1 ?
82 to 84 °C

Quick check: melting point of Cc1c[nH]c(=O)n1-c1ccccc1N ?
194 to 196 °C

====

Give measured melting point for each item. Keep answers brief.

Quick check: melting point of O=C(O)c1ccc(Oc2ccc(Br)cc2)nc1 ?
175 to 177 °C

Quick check: melting point of O=C1OC(CCl)CN1c1ccccc1 (stereo unspecified) ?
103 to 105 °C

Quick check: melting point of Cc1cccc(C)c1C=O ?
27 to 30 °C

Quick check: melting point of NC(=O)c1c(NC(=O)CCl)sc2c1CCC2 ?
181 to 183 °C

Quick check: melting point of Nc1cccc(CN2C(=O)CNC2=O)c1 ?
159 to 161 °C

Quick check: melting point of CC(=O)N1CCC(C(=O)O)C1 (stereo unspecified) ?
145 to 147 °C

Quick check: melting point of O=C1NC2(CCNCC2)NC12CCCCC2 ?
276 to 278 °C

Quick check: melting point of Cc1c(C(=O)O)nnn1-c1ccccc1 ?
110 to 112 °C

Quick check: melting point of COC(=O)c1ccc(S(=O)(=O)Cl)c([N+](=O)[O-])c1 ?
100 to 102 °C

Quick check: melting point of N#Cc1ccc(S(=O)(=O)Cl)cn1 ?
67 to 69 °C

Quick check: melting point of CC1(C)CCC(C#N)=C1N ?
108 to 110 °C

Quick check: melting point of CC(=O)Nc1cc2ccccc2cc1C(=O)O ?
190 to 192 °C

Quick check: melting point of O=C(CCl)Nc1nc2c(s1)CCCC2 ?
144 to 146 °C

Quick check: melting point of Cc1cc(-c2nnc3ccccn23)ccc1N ?
180 to 182 °C

Quick check: melting point of COc1nc(Cl)ncc1Br ?
76 to 78 °C

Quick check: melting point of Nc1ccc2cccc(Br)c2n1 ?
152 to 154 °C

Quick check: melting point of N#CCc1coc(-c2ccccc2)n1 ?
87 to 89 °C

Quick check: melting point of O=C(O)c1cc2c(F)cc(F)cc2[nH]1 ?
252 to 254 °C

Quick check: melting point of O=C(O)c1csc2c1CCCC2 ?
159 to 161 °C

Quick check: melting point of CC(Cl)c1nnnn1-c1ccccc1 (stereo unspecified) ?
95 to 97 °C

Quick check: melting point of Cc1cc(Br)cn2c(CO)cnc12 ?
174 to 176 °C

Quick check: melting point of CS(=O)(=O)CCCI ?
59 to 61 °C

Quick check: melting point of CN1CCN(c2ncc(Br)cc2CO)CC1 ?
140 to 142 °C

Quick check: melting point of O=C(O)Cc1cccc(OCc2ccc(Cl)cc2)c1 ?
126 to 128 °C

Quick check: melting point of O=C(c1nc2ccccc2s1)C(F)(F)F ?
83 to 85 °C

Quick check: melting point of O=S(=O)(Cl)Cc1ccc(F)cc1Br ?
45 to 47 °C

Quick check: melting point of COC(=O)c1cc(C(C)(C)C)n[nH]1 ?
172 to 174 °C

Quick check: melting point of O=c1[nH]c(-c2cccs2)no1 ?
183 to 185 °C

Quick check: melting point of N#Cc1c(F)cccc1-n1ccc(N)n1 ?
134 to 136 °C

Quick check: melting point of Cc1ccc(C)n1-c1cn[nH]c1 ?
155 to 157 °C

Quick check: melting point of COc1ccc(/C=C/C(=O)O)cc1S(=O)(=O)NC(C)C ?
202 to 204 °C

====

measured quantity: melting point

Quick check: melting point of O=C(O)c1ccc(-n2cnnn2)cc1Cl ?
179 to 181 °C

Quick check: melting point of N#Cc1ccc(CS(=O)(=O)CC(=O)O)cc1 ?
197 to 199 °C

Quick check: melting point of CCN(CC)S(=O)(=O)c1cccc(N)c1 ?
84 to 86 °C

Quick check: melting point of N#CCc1nc(-c2ccc(C#N)cc2)cs1 ?
177 to 179 °C

Quick check: melting point of O=C1NCCc2ccc(F)cc21 ?
119 to 121 °C

Quick check: melting point of O=C(NC1CCc2ccccc21)c1ccnc(F)c1 (stereo unspecified) ?
121 to 123 °C

Quick check: melting point of CCOC(=O)c1cc2c(C)cc(C)cc2[nH]1 ?
119 to 121 °C

Quick check: melting point of O=C1CCCc2sccc2N1 ?
119 to 121 °C

Quick check: melting point of O=C(O)c1cc(S(=O)(=O)N2CCOCC2)ccc1F ?
201 to 203 °C

Quick check: melting point of NS(=O)(=O)Cc1ccc(CO)cc1 ?
118 to 120 °C

Quick check: melting point of O=C(CCl)Nc1nc(-c2ccccc2Cl)c(-c2ccccc2Cl)s1 ?
135 to 137 °C

Quick check: melting point of COc1ccccc1NC(=O)c1cc2ccccc2cc1O ?
161 to 164 °C

Quick check: melting point of CC(C)NS(=O)(=O)Cc1ccc(CN)cc1 ?
148 to 150 °C

Quick check: melting point of O=C(O)c1cc2ccccc2c(=O)[nH]1 ?
318 to 320 °C

Quick check: melting point of NCc1ccccc1NS(=O)(=O)c1ccccc1 ?
188 to 190 °C

Quick check: melting point of Sc1nnc(CN2CCCC2)n1-c1ccc(Cl)cc1 ?
260 to 262 °C

Quick check: melting point of Cc1cc(C)c(CBr)c(C)c1 ?
49 to 51 °C

Quick check: melting point of O=C(O)c1ccc(Oc2ccc(Cl)cc2)c(F)c1 ?
128 to 130 °C

Quick check: melting point of CCOC(C)C(N)=NO (stereo unspecified) ?
88 to 90 °C

Quick check: melting point of O=C(O)COC1CCOCC1 ?
65 to 67 °C

Quick check: melting point of Cc1ccc(S(=O)(=O)CC(=O)CBr)cc1 ?
133 to 135 °C

Quick check: melting point of ClCc1nc(-c2cccc(Cl)c2)no1 ?
38 to 42 °C

Quick check: melting point of Fc1ccccc1-c1nnc(S)n1Cc1ccccc1 ?
90 to 92 °C

Quick check: melting point of Cn1c(Cl)cc(=O)[nH]c1=O ?
195 to 197 °C

Quick check: melting point of CCc1ccc(C(=O)O)cc1N ?
146 to 148 °C

Quick check: melting point of C=CCN1C(=O)c2ccc(C(=O)O)cc2C1=O ?
154 to 156 °C
